# credit: patent US10793591B2

Let's look at some molecules and their measured EC50.
System: Huh-7 cells containing the self-replicating, subgenomic HCV replicon
PROTOCOL_TEXT: HCV replicon assay (luciferase reporter)
Format: cell-based
MEASUREMENT_SETUP: Hepatitis C virus, Huh-7, 72 h

Record excerpt, results attached:
MOLECULE | EC50
CC(C)OC(=O)[C@H](C)NP(=O)(OC[C@@]1(F)O[C@@H](n2ccc(=O)[nH]c2=O)[C@](C)(O)[C@@H]1O)Oc1cccc2ccccc12 (stereo partly shown) | < 1000 nM
CC(C)OC(=O)[C@H](C)NP(=O)(OC[C@@]1(F)O[C@@H](n2ccc(=O)[nH]c2=O)[C@](C)(Cl)[C@@H]1O)Oc1ccccc1 (stereo partly shown) | < 1000 nM
CC(N[P@@](=O)(OC[C@@]1(F)O[C@@H](n2ccc(=O)[nH]c2=O)[C@](C)(O)[C@@H]1O)Oc1ccccc1)C(=O)OC1CCCCC1 (stereo partly shown) | < 1000 nM
C=C[C@]1(O)[C@H](n2ccc(=O)[nH]c2=O)O[C@](F)(COP(=O)(N[C@@H](C)C(=O)OC(C)C)Oc2ccccc2)[C@H]1O (stereo partly shown) | 1000 to 10000 nM
CCOc1nc(N)nc2c1ncn2[C@@H]1O[C@]2(F)COP(=O)(OC(C)C)O[C@H]2[C@@]1(C)F (stereo partly shown) | < 1000 nM

Field EC50 (entry CCOc1nc(N)nc2c1ncn2[C@@H]1O[C@](F)(COP(=O)(N[C@@H](C)C(=O)OCC(C)(C)C)Oc2ccccc2)[C@@H](O)[C@@]1(C)F (stereo partly shown) ) reads < 1000 nM

Field EC50 (entry CCOc1nc(N)nc2c1ncn2[C@@H]1O[C@](F)(COP(=O)(N[C@@H](C)C(=O)OCC(C)(C)C)Oc2cccc3ncccc23)[C@@H](O)[C@@]1(C)F (stereo partly shown) ) reads < 1000 nM

Field EC50 (entry CCOc1nc(N)nc2c1ncn2[C@@H]1O[C@](F)(COP(=O)(N[C@@H](C)C(=O)OCC(C)(C)C)Oc2cccc3ccccc23)[C@@H](O)[C@@]1(C)F (stereo partly shown) ) reads < 1000 nM

Field EC50 (entry `C=C=C[C@]1(O)[C@H](n2ccc(=O)[nH]c2=O)O[C@](F)(CO[P@@](=O)(N[C@@H](C)C(=O)OC(C)C)Oc2ccccc2)[C@H]1O` ) reads 1000 to 10000 nM

Field EC50 (entry CCOc1nc(N)nc2c1ncn2[C@@H]1O[C@]2(F)COP(=O)(OCC(C)C)O[C@H]2[C@@]1(C)F (stereo partly shown) ) reads 1000 to 10000 nM

Field EC50 (entry CCOc1nc(N)nc2c1ncn2C1O[C@](F)(COP(=O)(N[C@@H](C)C(=O)OCC(C)C)Oc2ccccc2)[C@@H](O)[C@@]1(C)F (stereo partly shown) ) reads < 1000 nM

Field EC50 (entry CC(C)OC(=O)[C@H](C)NP(=O)(OC[C@@]1(F)O[C@@H](n2ccc(=O)[nH]c2=O)[C@](C)(O)[C@@H]1O)Oc1ccc(Cl)cc1 (stereo partly shown) ) reads < 1000 nM

Field EC50 (entry CCOc1nc(N)nc2c1ncn2[C@@H]1O[C@](F)(COP(=O)(N[C@@H](C)C(=O)OCC(C)(C)C)Oc2ccccc2)[C@@H](O)[C@@]1(C)O (stereo partly shown) ) reads < 1000 nM

Field EC50 (entry `CC(C)(C)C(=O)SCCCCOP(=O)(OCCCCSC(=O)C(C)(C)C)OC[C@@]1(F)O[C@@H](n2ccc(=O)[nH]c2=O)[C@](C)(O)[C@@H]1O` ) reads 10000 to 100000 nM

Field EC50 (entry CCOc1nc(N)nc2c1ncn2[C@@H]1O[C@]2(F)COP(=O)(OCC)O[C@H]2[C@@]1(C)F (stereo partly shown) ) reads < 1000 nM

Field EC50 (entry CCOc1nc(N)nc2c1ncn2[C@@H]1O[C@](F)(COP(=O)(N[C@@H](C)C(=O)OC2CCCC2)Oc2ccccc2)[C@@H](O)[C@@]1(C)F (stereo partly shown) ) reads < 1000 nM
